Where do these numbers come from? They come from paper PMC9352680.

For each of the binders below, state its Kd.
Biological target: T1, PUF4 RNA-binding domain (Saccharomyces cerevisiae, UniProt P25339 537-888)
T1 sequence: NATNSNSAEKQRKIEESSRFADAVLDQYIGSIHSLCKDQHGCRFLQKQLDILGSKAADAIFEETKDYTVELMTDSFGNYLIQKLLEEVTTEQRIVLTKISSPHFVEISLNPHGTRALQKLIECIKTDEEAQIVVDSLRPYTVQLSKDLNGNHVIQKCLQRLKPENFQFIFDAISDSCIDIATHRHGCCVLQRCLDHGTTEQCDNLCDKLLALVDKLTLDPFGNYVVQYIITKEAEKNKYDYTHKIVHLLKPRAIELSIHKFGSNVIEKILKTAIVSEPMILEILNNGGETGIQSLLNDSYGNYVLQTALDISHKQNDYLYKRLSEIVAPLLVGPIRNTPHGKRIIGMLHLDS
Experiment: Mg; RNA-MaP; 20 mM Na-HEPES pH 7.4, 30 mM KOAc, 0.75 mM MgCl2, 0.1% Tween-20, 5% glycerol, 0.1 mg/mL BSA, 2 mM DTT; 25 C; 0.0125-409.6 nM protein
Settings: tags: N-His6-TEV cleaved; C-SNAP kept, Cy3B-labelled; label: tethered on chip by stalled RNA polymerase

Worked set:
1) Ic_S4_P3E.1_K3.1_C3.1_H3.1_A3.1_[T5C]_[A6T]_F3.1_[T7A]_[A8C]_T3.1 (ssRNA) RNA: UUUGACAACUGAUCGUUCUUUCUUGUACUACUUCUUUCUCGAUCAGUUGUCUUU    89.8 nM
2) Ic_S4_P5E.1_K5.1_C5.1_H5.1_A5.1_[T5G]_[T6C]_[A7T]_F5.1_[T8A]_[A10T]_T5.1 (ssRNA) RNA: UUUGACAACUGAUCGUUCUUUCUUGUAGCUAUUUUCUUUCUCGAUCAGUUGUCUUU    56.6 nM
3) Ib_S2_P4E.1_K4.1_C4.1_H4.1_A4.1_F4.1_[T8A]_[A9G]_T4.1 (ssRNA) RNA: UUUGAUUAAUAUGAUAUCGUUCUUUCUUGUAUAUAGUUCUUUCUCGAUAUCAUAUUAAUCUUU    9.03 nM
4) UCUCUUUGUACCUGCCUCUCUU (ssRNA) [Ic_S1_P5E.1_K5.1_C5.1_H5.1_A5.1_[T5C]_[T6C]_[A7T]_F5.1_[T8G]_[T9C]_[A10C]_T5.1]    353 nM
5) UCUCUUUGUACACCCUCUCUU (ssRNA) [Ic_S1_P4E.1_K4.1_C4.1_H4.1_A4.1_[T5C]_[T7C]_F4.1_[T8C]_[A9C]_T4.1]    118 nM

Lab note: next binder to report on.
Problem: Give its Kd value. Item: UCUCUUUGUAGUACCUUCUCUU (ssRNA) [Ic_S1_P5E.1_K5.1_C5.1_H5.1_A5.1_[T5G]_F5.1_[T8C]_[T9C]_[A10T]_T5.1]
Result: > 2300 nM
